Target: EPHA3 (Homo sapiens)
Construct: human EPHA3 intracellular domain (amino acids 571-986) containing juxtamembrane, kinase and SAM regions; 6xHis; made in house; host or cells: E. coli (Rosetta DE cells)
Sequence (P29320 571-983 limits assumed): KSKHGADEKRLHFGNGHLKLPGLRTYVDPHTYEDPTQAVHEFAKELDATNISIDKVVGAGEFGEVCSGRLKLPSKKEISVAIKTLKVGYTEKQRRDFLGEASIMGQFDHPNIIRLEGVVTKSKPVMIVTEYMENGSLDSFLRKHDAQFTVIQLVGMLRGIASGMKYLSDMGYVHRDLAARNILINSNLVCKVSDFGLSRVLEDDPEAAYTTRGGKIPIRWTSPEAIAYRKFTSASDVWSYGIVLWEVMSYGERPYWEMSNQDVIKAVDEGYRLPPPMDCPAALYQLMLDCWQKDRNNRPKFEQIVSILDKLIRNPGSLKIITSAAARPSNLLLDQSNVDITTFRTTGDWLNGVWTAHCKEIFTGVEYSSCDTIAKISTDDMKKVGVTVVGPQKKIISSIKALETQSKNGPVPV
Test: DELFIA EPHA3 kinase assay (phosphorylation of biotin-Src-peptide)
Type: biochemical
Conditions: EPHA3 30 nM, biotin-Src-peptide 1 μM, ATP 30 μM, 3 hr incubation at 37° C., read-out: EPHA3 Potency IC50
pIC50: −log10 of the molar value.
measured_attribute: pIC50

INSERT INTO results (compound, reported_result) VALUES
  ('COc1cc2ncnc(Nc3ccc(Cl)cc3F)c2cc1OC', 6.30),
  ('Oc1cccc(Nc2ncnc3ccccc23)c1', 4.96),
  ('COc1cc2ncnc(Nc3cccc(Cl)c3)c2cc1OC', 5.35);

1 = COc1cc2c(Nc3cc(Cl)ccc3F)ncnc2cc1OCC1CCN(C)CC1
2 = COc1cc2c(Nc3ccc(Cl)c(Cl)c3)ncnc2cc1OCC1CN(C2CCCC2)CCO1 (centres unmarked)
Q. Field: lower recorded pIC50 (choose 1 or 2 ) # answer = label of selected item
A. 1
(1: 5.70, 2: 6.70)

Reference source for all entries: patent US20080199480A1
